# study.system: HSA (Homo sapiens, UniProt P02768)
# Sequence (P02768 25-609): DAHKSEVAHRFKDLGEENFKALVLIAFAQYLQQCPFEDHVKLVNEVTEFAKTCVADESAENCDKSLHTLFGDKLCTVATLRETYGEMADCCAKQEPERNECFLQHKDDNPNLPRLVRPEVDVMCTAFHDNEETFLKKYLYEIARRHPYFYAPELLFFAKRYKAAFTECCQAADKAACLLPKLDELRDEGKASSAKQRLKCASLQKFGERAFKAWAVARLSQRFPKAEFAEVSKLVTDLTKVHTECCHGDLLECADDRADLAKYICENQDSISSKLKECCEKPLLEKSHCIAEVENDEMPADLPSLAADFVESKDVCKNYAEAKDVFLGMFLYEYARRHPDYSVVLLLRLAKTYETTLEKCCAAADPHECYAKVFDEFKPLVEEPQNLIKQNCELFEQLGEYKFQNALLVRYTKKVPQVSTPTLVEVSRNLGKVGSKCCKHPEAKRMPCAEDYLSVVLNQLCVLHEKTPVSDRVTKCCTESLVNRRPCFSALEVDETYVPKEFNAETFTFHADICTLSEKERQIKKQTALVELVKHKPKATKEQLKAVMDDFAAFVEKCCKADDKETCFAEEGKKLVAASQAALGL
# assay.details: Albumin binding affinity by surface plasmon resonance
# details: SPR, BIAcoT200 system, HSA
Square brackets hold non-standard residues; d marks the D form. Ends that are not written are not given here. * marks the point of attachment. FITC = O=C1OC2(c3ccc(O)cc3Oc3cc(O)ccc32)c2ccc(NC(=S)*)cc21; Stearoyl = CCCCCCCCCCCCCCCCCC(=O)*; Palmitoyl = CCCCCCCCCCCCCCCC(=O)*; Myristoyl = CCCCCCCCCCCCCC(=O)*; Aib = CC(C)(N)C(=O)O; Ahx = NCCCCCC(=O)O
measurement.name: log10 k d (log10 of the value in s⁻¹)
Recall that a logarithmic scale is used here: each number is log10 of k d in s⁻¹.

>  <substance>
{FITC-Ahx}-EYEEK(Myristoyl)YEGGGGSGGGGSFNPRH[Aib]EGTFTSDVSSYLEGQAAKEFIAWLVKGRG (N-terminus assumed) [PES13]

>  <measurement.name>
log10 k d

>  <numeric.readout>
-2.37

$$$$
>  <substance>
{FITC-Ahx}-EYEK(Myristoyl)EYEGGGGSGGGGSFNPRH[Aib]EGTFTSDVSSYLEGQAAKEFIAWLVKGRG (N-terminus assumed) [PES10]

>  <measurement.name>
log10 k d

>  <numeric.readout>
-1.48

$$$$
>  <substance>
{FITC-Ahx}-EYEEK(Palmitoyl)YEGGGGSGGGGSFNPRH[Aib]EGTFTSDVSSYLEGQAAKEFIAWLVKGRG (N-terminus assumed) [PES14]

>  <measurement.name>
log10 k d

>  <numeric.readout>
-2.00

$$$$
>  <substance>
{FITC-Ahx}-EYK(Myristoyl)EEYEGGGGSGGGGSFNPRH[Aib]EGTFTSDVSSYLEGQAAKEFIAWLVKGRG (N-terminus assumed) [PES07]

>  <measurement.name>
log10 k d

>  <numeric.readout>
-1.20

$$$$
>  <substance>
{FITC-Ahx}-EYK(Palmitoyl)EEYEGGGGSGGGGSFNPRH[Aib]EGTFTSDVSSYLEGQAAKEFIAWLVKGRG (N-terminus assumed) [PES08]

>  <measurement.name>
log10 k d

>  <numeric.readout>
-1.03

$$$$

Continue with the next substance.
Kindly note the recorded log10 k d for {FITC-Ahx}-K(Stearoyl)EYEEYEGGGGSGGGGSFNPRH[Aib]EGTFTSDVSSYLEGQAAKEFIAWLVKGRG (N-terminus assumed) [PES03] , which is -1.49
